- TESTED TARGET: Amine oxidase [flavin-containing] A (Homo sapiens, UniProt P21397)
- Sequence (P21397 whole entry): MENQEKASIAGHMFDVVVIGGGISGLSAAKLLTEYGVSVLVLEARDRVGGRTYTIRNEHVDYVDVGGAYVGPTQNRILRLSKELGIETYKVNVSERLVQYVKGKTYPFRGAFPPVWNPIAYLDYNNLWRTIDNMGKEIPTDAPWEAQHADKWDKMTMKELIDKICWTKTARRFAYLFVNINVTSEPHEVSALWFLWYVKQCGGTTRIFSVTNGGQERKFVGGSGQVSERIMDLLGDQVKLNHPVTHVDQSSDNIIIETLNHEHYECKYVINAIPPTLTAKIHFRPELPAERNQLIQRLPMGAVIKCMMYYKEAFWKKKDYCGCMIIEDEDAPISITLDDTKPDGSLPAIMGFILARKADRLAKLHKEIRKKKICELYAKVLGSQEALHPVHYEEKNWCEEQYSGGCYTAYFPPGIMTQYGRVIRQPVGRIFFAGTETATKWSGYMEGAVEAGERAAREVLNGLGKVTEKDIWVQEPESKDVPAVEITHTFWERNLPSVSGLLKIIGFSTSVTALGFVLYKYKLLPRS
- EXPERIMENT NOTES: Inhibition of human recombinant MAOA expressed in insect cells by fluorescence assay
pKi: −log10 of the molar value.
OBSERVATION TYPE: pKi

Solved entries (count: 2):
O=C1Nc2ccc(CCc3ccccc3)cc2C1=O = 5.89
O=C1Nc2ccc(CCCCc3ccccc3)cc2C1=O = 6.24

a: O=C1Nc2ccc(Oc3ccccc3)cc2C1=O
b: Nc1ccc(/C=C/c2ccccc2)cc1 [(E)-4-STYRYLANILINE]
c: O=C1Nc2ccc(/C=C/c3ccccc3)cc2C1=O
-- ask Arrange the 3 entries by pKi so the values rise. Give me the labels in the order the question wants.
-- reply b, a, c
(b: 5.18, a: 5.60, c: 7.21)
